B1: TPR 5TU (parent)
chain: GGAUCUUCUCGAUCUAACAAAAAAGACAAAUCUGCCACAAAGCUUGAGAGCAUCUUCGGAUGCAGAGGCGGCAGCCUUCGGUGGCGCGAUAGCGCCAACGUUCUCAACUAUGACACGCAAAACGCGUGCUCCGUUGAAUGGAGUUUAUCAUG

# Variants of: B1
# protocol_summary: polymerase ribozyme fitness, log enrichment relative to wild type (log ratio); higher = more active; in vitro selection for triplet polymerase activity
Fewer inactive variants are shown than the library holds.
endpoint_name: polymerase ribozyme fitness (log ratio)
Give bare numbers.

Below, each entry is followed by its recorded polymerase ribozyme fitness (log ratio) result.
| var | polymerase ribozyme fitness (log ratio) |
| --- | --- |
| G124U G140A | -4 |
| G92A G124A | -2.65 |
| C57A C85U G124U U130A | -2.9 |
| U56A C123U | 0.128 |

Look up polymerase ribozyme fitness (log ratio) of A30U A40U C87G C103G G141A and report it. -3.9

Values from the RNAGym collection of RNA variant scans (doi:10.1073/pnas.2313332121)
